# assay-system: constitutive proteasome β5c subunit (Homo sapiens, UniProt P28074)
# experimental-protocol: Caliper-based proteasome enzymatic activity assay, β5c
# measurement-setup: human recombinant constitutive proteasome 0.3 nM, FAM peptide substrate 1 μM, rt 3 h
Lab note - cut at 200 nM for IC50: met if strictly below, not met if not.

compound: CN(C)C(=O)C(C#N)=Cc1cccc(CCOC(=O)N[C@@H](Cc2ccccc2)B(O)O)c1 [Example 17]
assigned-category: not met

compound: C[C@H]1COC[C@H](C)N1C(=O)C(C#N)=Cc1cccc(CCOC(=O)N[C@@H](Cc2ccccc2)B(O)O)c1 [Example 68]
assigned-category: not met

compound: N#CC(=Cc1cccc(OCCC(=O)N[C@@H](Cc2ccccc2)B(O)O)c1)c1ncccc1F [Example 34]
assigned-category: met

compound: CC(C)NC(=O)C(C#N)=Cc1cccc(OCCC(=O)N[C@@H](Cc2ccccc2)B(O)O)c1 [Example 12]
assigned-category: met

compound: N#CC(=Cc1cccc(OCCC(=O)N[C@@H](Cc2ccccc2)B(O)O)c1)C(=O)NC1CCOCC1 [Example 10]
assigned-category: met

compound: Cc1ccc(C[C@H](NC(=O)OCCc2cccc(C=C(C#N)C(=O)N3[C@H](C)COC[C@H]3C)c2)B(O)O)cc1 [Example 85]
assigned-category: not met

compound: N#CC(=Cc1cccc(CCOC(=O)N[C@@H](Cc2ccccc2)B(O)O)c1)C(=O)N1C2CCC1COC2 [Example 67]
assigned-category: not met

compound: COCC(C)(C)NC(=O)C(C#N)=Cc1cccc(OCCC(=O)N[C@@H](Cc2ccccc2)B(O)O)c1 [Example 47]
assigned-category: met

compound: Cc1ccc(C[C@H](NC(=O)NCCc2cccc(C=C(C#N)c3ncccn3)c2)B(O)O)cc1 [Example 83]
assigned-category: not met

compound: Cn1cnc(C(C#N)=Cc2cccc(CCOC(=O)N[C@@H](Cc3ccccc3)B(O)O)c2)cc1=O [Example 84]
assigned-category: not met

compound: COC(C)(C)CNC(=O)C(C#N)=Cc1cccc(OCCC(=O)N[C@@H](Cc2ccccc2)B(O)O)c1 [Example 48]
assigned-category: met

compound: CC(C)(C)NC(=O)C(C#N)=Cc1cccc(CC[C@H](NC(=O)c2cnccn2)C(=O)N[C@@H](Cc2ccccc2)B(O)O)c1 [Example 1]
assigned-category: met

compound: CN(C)C(=O)C(C#N)=Cc1cccc(OCCC(=O)N[C@@H](Cc2ccccc2)B(O)O)c1 [Example 5]
assigned-category: met

compound: CC(C)N(C(=O)C(C#N)=Cc1cccc(CCOC(=O)N[C@@H](Cc2ccccc2)B(O)O)c1)C(C)C (single isomer, unassigned) [Example 75]
assigned-category: not met

compound: N#CC(=Cc1cccc(CCOC(=O)N[C@@H](Cc2ccccc2)B(O)O)c1)c1ccc(C#N)cn1 [Example 78]
assigned-category: not met
